src = paper PMC8213153

# ASSAY_DETAILS: Cytotoxicity (MTT) assay of single and dual combinatory drugs
# Format: cell-based
# PARTICULARS: human, LOPIRITO-CLA experiment (Fig 5); 48 hours; CompuSyn; n = 3; read-out: CC50
READOUT: CC50 at 48 h (µg/mL)
State just the number; it will be interpreted in µg/mL.

Ask: I'd like to know its CC50 at 48 h. The molecule in question is `CC[C@H]1OC(=O)[C@H](C)[C@@H](O[C@H]2C[C@@](C)(OC)[C@@H](O)[C@H](C)O2)[C@H](C)[C@@H](O[C@@H]2O[C@H](C)C[C@H](N(C)C)[C@H]2O)[C@](C)(OC)C[C@@H](C)C(=O)[C@H](C)[C@@H](O)[C@]1(C)O`
Reply: 2280
